Molecular target: IL-17A : IL-17RA binding (Homo sapiens, UniProt Q16552, K93Q)
Construct: Name: IL-17A-Flag
Sequence (Q16552 with tags, fused parts or gaps K93Q): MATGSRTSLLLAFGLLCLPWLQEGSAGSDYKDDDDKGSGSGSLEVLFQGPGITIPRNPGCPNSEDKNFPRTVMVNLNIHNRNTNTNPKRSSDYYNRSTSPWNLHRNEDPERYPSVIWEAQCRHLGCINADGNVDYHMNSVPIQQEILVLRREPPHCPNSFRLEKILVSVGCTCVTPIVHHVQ
Experiment: IL-17A(FLAG-tagged):IL-17RA(His-tagged) binding disruption Eu-HTRF assay, Protocol 1
Conditions: FLAG-IL-17A 2.5 nM at 2x final concentration; average if tested more than once
property-label: IC50

Can you share its IC50? I mean this compound: C[C@@H](NC(=O)CCC(F)(F)F)c1ccc2[nH]c([C@@H](NC(=O)c3cnc(CCC(F)(F)F)s3)C3CCC(F)(F)CC3)nc2c1
> 100 nM

State the recorded IC50 for this entry: C[C@@H](NC(=O)CCC(F)(F)F)c1ccc2[nH]c([C@@H](NC(=O)c3cnn(CC4CC4(F)F)n3)C3CCC(F)(F)CC3)nc2c1 (stereo partly drawn)
> 100 nM

Look at this compound and give its reported IC50. CC(C)c1nnsc1C(=O)N[C@H](c1nc2cc([C@@H](C)NC(=O)CCC(F)(F)F)ccc2[nH]1)C1CCC(F)(F)CC1
> 100 nM
